target: T1, canine FcRn (UniProtKB-E2ROL6 [FcRn] and UniProtKB-E2RN10 [canine beta-2-microglobulin]) (canine); test: SPR Biacore 8K, pH 5.5, Fc captured on BSA via SASA tag, FcRn 100-800 nM
T1 construct: Soluble analyte injected in SPR
parameter: koff
Please give the number followed by its unit.

input: Could you share which koff value was measured for canine IgG.B Fc (CH2-CH3) variant N434R (Fc fusion) APEMLGGPSVFIFPPKPKDTLLIARTPEVTCVVVDLDPEDPEVQISWFVDGKQMQTAKTQPREEQFNGTYRVVSVLPIGHQDWLKGKQFTCKVNNKALPSPIERTISKARGQAHQPSVYVLPPSREELSKNTVSLTCLIKDFFPPDIDVEWQSNGQQEPESKYRTTPPQLDEDGSYFLYSKLSVDKSRWQRGDTFICAVMHEALHRHYTQESLSHSPGK ?
output: 0.0801 s⁻¹
